- targetUnderTest: human NCX1 (Homo sapiens)
- Construct: expressed in transfected cells
- assayText: Inhibition of Ca2+ influx into cells (NCX1 reverse mode), FLIPR Fluo-4 assay
- Assay type: cell-based
- conditionDescription: inhibition of NCX1 in reverse mode (Ca2+ influx into cells); read-out: NCX1rv IC50
- Experimental: The sodium/calcium exchanger NCX1 can transport calcium ions and sodium ions through the cell membrane. The transport is an exchange of Ca^2+ and Na^+ in two directions depending on membrane potential and ion gradients. […] The effect of the compounds of the invention on NCX1 was determined in CHO cells stably expressing human NCX1 (gene symbol SLC8A1; cf. WO 2009/115238). […]
// IC50 lookup, one value per entry
testReadout: IC50 (nM)

{"columns": ["compound", "targetUnderTest", "testReadout", "measured"],
 "data": [
  ["Cc1ncsc1CN[C@H]1CC[C@H](Oc2ccc3c(c2)CCC(c2ccccc2)O3)CC1 (stereo partly shown)", "human NCX1 (Homo sapiens)", "IC50", 400],
  ["Cc1n[nH]c(C)c1CCC(=O)N[C@H]1CC[C@H](Oc2ccc3c(c2)CCC(c2ccccc2)O3)CC1 (relative stereo)", "human NCX1 (Homo sapiens)", "IC50", 300],
  ["c1ccc(C2CCc3cc(OC4CCC(NC5CCOCC5)CC4)ccc3O2)cc1 (stereo not shown)", "human NCX1 (Homo sapiens)", "IC50", 1900],
  ["CC(C)CCNC1CCC(Oc2ccc3c(c2)CCC(c2ccccc2)O3)CC1 (stereo not shown)", "human NCX1 (Homo sapiens)", "IC50", 600]
]}

###

- targetUnderTest: human NCX1 (Homo sapiens, UniProt P32418)
- Construct: expressed in transfected cells
- assayText: Inhibition of Ca2+ influx into cells (NCX1 reverse mode), FLIPR Fluo-4 assay
- Type: cell-based
- conditionDescription: inhibition of NCX1 in reverse mode (Ca2+ influx into cells); read-out: NCX1rv IC50
Counter-ions that a name gives are not always drawn.
Lab note: compare IC50 with 600 nM, writing satisfied if less and not satisfied if equal or more.

{"columns": ["molecule", "targetUnderTest", "assignedCategory"],
 "data": [
  ["O=C(NCCO)C1CCC(Oc2ccc3c(c2)CC[C@@H](c2ccccc2)O3)CC1 (stereo partly shown)", "human NCX1 (Homo sapiens, UniProt P32418)", "not satisfied"],
  ["Cc1ccccc1C1CCc2cc(OC3CCC(NC4CCCC4)CC3)ccc2O1 (stereo not shown)", "human NCX1 (Homo sapiens, UniProt P32418)", "not satisfied"],
  ["Cc1csc(CN[C@H]2CC[C@H](Oc3ccc4c(c3)CCC(c3ccccc3)O4)CC2)n1 (stereo partly shown)", "human NCX1 (Homo sapiens, UniProt P32418)", "satisfied"],
  ["O=C(C1CCC(Oc2ccc3c(c2)CCC(c2ccccc2)O3)CC1)N(CCO)CCO (stereo not shown)", "human NCX1 (Homo sapiens, UniProt P32418)", "not satisfied"],
  ["Cc1cccc(C)c1C1CCc2cc(OC3CCC(NCc4c(C)nn(C)c4C)CC3)ccc2O1 (stereo not shown)", "human NCX1 (Homo sapiens, UniProt P32418)", "not satisfied"],
  ["Cc1n[nH]c(C)c1CC(=O)N[C@H]1CC[C@H](Oc2ccc3c(c2)CCC(c2ccccc2)O3)CC1 (relative stereo)", "human NCX1 (Homo sapiens, UniProt P32418)", "satisfied"],
  ["CSC(C)CCNC1CCC(Oc2ccc3c(c2)CCC(c2ccccc2C)O3)CC1 (stereo not shown)", "human NCX1 (Homo sapiens, UniProt P32418)", "not satisfied"],
  ["COC[C@H](C)NC1CCC(Oc2ccc3c(c2)CCC(c2ccccc2C)O3)CC1 (stereo partly shown)", "human NCX1 (Homo sapiens, UniProt P32418)", "not satisfied"],
  ["O=C(CO)N[C@H]1CC[C@H](Oc2ccc3c(c2)CCC(c2ccccc2)O3)CC1 (relative stereo)", "human NCX1 (Homo sapiens, UniProt P32418)", "satisfied"],
  ["CCn1nccc1CNC(=O)C1CCC(Oc2ccc3c(c2)CC(C)C(c2ccccc2)O3)CC1 (stereo not shown)", "human NCX1 (Homo sapiens, UniProt P32418)", "satisfied"],
  ["O=C(NCCO)C1CCC(Oc2ccc3c(c2)CC[C@H](c2ccccc2)O3)CC1 (stereo partly shown)", "human NCX1 (Homo sapiens, UniProt P32418)", "satisfied"],
  ["N[C@@H](CO)C(=O)N[C@H]1CC[C@H](Oc2ccc3c(c2)CCC(c2ccccc2)O3)CC1 (stereo partly shown) [compound 181, hydrochloride]", "human NCX1 (Homo sapiens, UniProt P32418)", "satisfied"],
  ["c1ccc(C2CCc3cc(OC4CCC(NCC5CCCO5)CC4)ccc3O2)cc1 (stereo not shown)", "human NCX1 (Homo sapiens, UniProt P32418)", "not satisfied"],
  ["COCC(C)(C)CNC1CCC(Oc2ccc3c(c2)CCC(c2ccccc2)O3)CC1 (stereo not shown)", "human NCX1 (Homo sapiens, UniProt P32418)", "not satisfied"],
  ["Cc1n[nH]c(C)c1CC(=O)N[C@H]1CC[C@H](Oc2ccc3c(c2)CCC(c2ccccc2F)O3)CC1 (relative stereo)", "human NCX1 (Homo sapiens, UniProt P32418)", "not satisfied"]
]}

###

// log10 of IC50 lookup, one value per entry
- targetUnderTest: human NCX1 (Homo sapiens, UniProt P32418)
- Construct: expressed in transfected cells
- assayText: Inhibition of Ca2+ influx into cells (NCX1 reverse mode), FLIPR Fluo-4 assay
- Type: cell-based
- conditionDescription: inhibition of NCX1 in reverse mode (Ca2+ influx into cells); read-out: NCX1rv IC50
testReadout: log10 of IC50 (log10 of the value in nM)

{"columns": ["molecule", "log10 of IC50"],
 "data": [
  ["Cc1c(CCC(=O)N[C@H]2CC[C@H](Oc3ccc4c(c3)CCC(c3ccccc3F)O4)CC2)cnn1C (relative stereo)", 2.30],
  ["Fc1ccccc1C1CCc2cc(OC3CCC(NCCN4CCSCC4)CC3)ccc2O1 (centres unmarked)", 3.63],
  ["c1ccc(C2CCc3cc(OC4CCC(NC5CC5)CC4)ccc3O2)cc1 (centres unmarked)", 3.00],
  ["Cc1ccccc1C1CCc2cc(O[C@H]3CC[C@@H](C(=O)NCCO)CC3)ccc2O1 (single isomer, unassigned) [Example 270]", 2.00],
  ["O=C(CCn1cccn1)N[C@H]1CC[C@H](Oc2ccc3c(c2)CCC(c2ccccc2F)O3)CC1 (single isomer, unassigned) [compound 253]", 2.48],
  ["Cc1ccccc1[C@@H]1CCc2cc(O[C@H]3CC[C@H](C(=O)NCCOP(=O)([O-])[O-])CC3)ccc2O1.[Na+].[Na+] [Example 303, disodium salt]", 2.00],
  ["Cc1ccccc1C1CCc2cc(O[C@H]3CC[C@H](NC(=O)CCn4cccn4)CC3)ccc2O1 (relative stereo)", 3.08],
  ["O=C(CSC(F)(F)F)N[C@H]1CC[C@H](Oc2ccc3c(c2)CCC(c2ccccc2F)O3)CC1 (relative stereo)", 2.60],
  ["O=C(CC1CC1)N[C@H]1CC[C@H](Oc2ccc3c(c2)CCC(c2ccccc2)O3)CC1 (relative stereo)", 2.30],
  ["O=C1CCC(Oc2ccc3c(c2)CCC(c2ccccc2)O3)CC1 (centres unmarked)", 2.60],
  ["CS(=O)(=O)CCC(=O)N[C@H]1CC[C@H](Oc2ccc3c(c2)CCC(c2ccccc2F)O3)CC1 (relative stereo)", 2.00],
  ["Cc1ccn(CC(=O)N[C@H]2CC[C@H](Oc3ccc4c(c3)CCC(c3ccccc3)O4)CC2)n1 (relative stereo)", 2.30],
  ["CO[C@H](C)C(=O)N[C@H]1CC[C@H](Oc2ccc3c(c2)CCC(c2ccccc2F)O3)CC1 (some centres unmarked)", 2.30],
  ["CC(C)CCCNC1CCC(Oc2ccc3c(c2)CCC(c2ccccc2)O3)CC1 (centres unmarked)", 2.90]
]}

###

- targetUnderTest: human NCX1 (Homo sapiens)
- Construct: expressed in transfected cells
- assayText: Inhibition of Ca2+ influx into cells (NCX1 reverse mode), FLIPR Fluo-4 assay
- Type: cell-based
- conditionDescription: inhibition of NCX1 in reverse mode (Ca2+ influx into cells); read-out: NCX1rv IC50
// IC50 lookup, one value per entry
testReadout: IC50

{"columns": ["molecule", "measured"],
 "data": [
  ["Cc1nc(CNC2CCC(Oc3ccc4c(c3)CCC(c3ccccc3)O4)CC2)no1 (stereo not shown)", "500 nM"],
  ["CCC(C)(O)C(=O)N[C@H]1CC[C@H](Oc2ccc3c(c2)CCC(c2ccccc2F)O3)CC1 (relative stereo)", "100 nM"],
  ["Cc1c(F)cccc1C1CCc2cc(OC3CCC(C(=O)NCC(=O)N(C)C)CC3)ccc2O1 (stereo not shown)", "600 nM"],
  ["Cc1cccc(C)c1C1CCc2cc(OC3CCC(C(=O)NCCO)CC3)ccc2O1 (stereo not shown)", "6200 nM"]
]}
